Reference for the values: ChEMBL document CHEMBL3271954

Below, each entry is listed alongside its reported T/C.
Test system: P388
Assay: Antitumor activity against mouse P388 cells allografted in DBA/2 mouse at 25 mg/kg/day, ip administered for 2 weeks relative to control
Type: functional
Settings: route intraperitoneal

| COMPOUND | UNIT_SPEC | T/C |
| --- | --- | --- |
| C=C1C(=O)O[C@H]2[C@H]1[C@H](OC(=O)/C(C)=C/CO)C/C(C)=C/CC[C@@]1(CO)O[C@H]21 | % | 147 |
| C=C1CC(C)(Cn2cc(COC(=O)c3cc(OC)c(OC)c(OC)c3)c(=O)[nH]c2=O)OC1=O (configuration not stated) | % | 142 |
| O=c1[nH]cc(F)c(=O)[nH]1 | % | 186 |
| C=C1CC(C)(Cn2ccc(=O)[nH]c2=O)OC1=O (configuration not stated) | % | 115 |
| C=C1C(=O)O[C@H]2/C=C(/C)[C@H](CO)C/C=C(\C)C[C@@H](OC(=O)/C(=C/CO)CO)[C@@H]12 | % | 147 |
| C=C1CC(C)(Cn2cc(COC(=O)/C=C/c3ccccc3)c(=O)[nH]c2=O)OC1=O (configuration not stated) | % | 130 |
| C=C1CC(C)(Cn2cc(C)c(=O)[nH]c2=O)OC1=O (configuration not stated) | % | 127 |
